Test: Fluorescence emission of compound solutions
Format: physicochemical
Conditions: Table 2
Metric name: λem (nm)
Numbers only here, please. The scale is nm.

# input compound: COc1ccc(/C=C/c2cc(C)c3n2[B-](F)(F)[N+]2=C(C)C=C(C)C2=C3COC(C)=O)cc1 [Compound 7] ; wanted: its λem
607

Quick one: λem of CC(=O)OCC1=C2C(C)=CC(C)=[N+]2[B-](F)(F)n2c(C=Cc3ccc(N(C)C)cc3)cc(C)c21 [Compound 8] ?
650

Which λem is listed for COc1ccc(/C=C/C2=[N+]3C(=C(COC(C)=O)c4c(C)cc(/C=C/c5ccc(OC)cc5)n4[B-]3(F)F)C(C)=C2)cc1 [Compound 10a] ?
684

I have this compound here, CC(=O)OCC1=C2C(C)=CC(C=Cc3ccccc3)=[N+]2[B-](F)(F)n2c(C=Cc3ccccc3)cc(C)c21 [Compound 9] , and I need its recorded λem.
656

* * *

Assay: UV-Vis spectroscopy: absorption maximum and extinction coefficient
Type: physicochemical
Conditions: Table 2
Metric name: ε
Kindly write the number and append the unit.

May I ask what ε has been recorded for COc1ccc(/C=C/C2=[N+]3C(=C(COC(C)=O)c4c(C)cc(/C=C/c5ccc(OC)cc5)n4[B-]3(F)F)C(C)=C2)cc1 [Compound 10a] ?
65000 M⁻¹ cm⁻¹

I'd like to know its ε. The compound in question is COc1ccc(/C=C/c2cc(C)c3n2[B-](F)(F)[N+]2=C(C)C=C(C)C2=C3COC(C)=O)cc1 [Compound 7]
61000 M⁻¹ cm⁻¹

Look at this compound and give its reported ε. COCCOCCOCCOc1ccc(C=CC2=[N+]3C(=C(CO)c4c(C)cc(C=Cc5ccc(OCCOCCOCCOC)cc5)n4[B-]3(F)F)C(C)=C2)cc1 [Compound 11b]
120000 M⁻¹ cm⁻¹

Data request, read-out ε, for CC(=O)OCC1=C2C(C)=CC(C)=[N+]2[B-](F)(F)n2c(C=Cc3ccc(N(C)C)cc3)cc(C)c21 [Compound 8]
60000 M⁻¹ cm⁻¹

Which ε value belongs to CC(=O)OCC1=C2C(C)=CC(C=Cc3ccccc3)=[N+]2[B-](F)(F)n2c(C=Cc3ccccc3)cc(C)c21 [Compound 9] ?
65000 M⁻¹ cm⁻¹

* * *

Assay: Quantum yield of photorelease of acetic acid (ferrioxalate actinometry, 532 nm laser, LC-UV)
Assay type: physicochemical
Conditions: Table 2; MeOH, 532 nm ND:YAG laser, LC-UV, average of 3 runs
Metric name: Φ (quantum yield of acetic acid release)

Find the recorded Φ (quantum yield of acetic acid release) belonging to COc1ccc(/C=C/C2=[N+]3C(=C(COC(C)=O)c4c(C)cc(/C=C/c5ccc(OC)cc5)n4[B-]3(F)F)C(C)=C2)cc1 [Compound 10a] and report it.
4.1 ×10^−4

Could you share which Φ (quantum yield of acetic acid release) value was measured for COc1ccc(/C=C/c2cc(C)c3n2[B-](F)(F)[N+]2=C(C)C=C(C)C2=C3COC(C)=O)cc1 ?
9.8 ×10^−4

Field request: Φ (quantum yield of acetic acid release) | item: CC(=O)OCC1=C2C(C)=CC(C)=[N+]2[B-](F)(F)n2c(C=Cc3ccc(N(C)C)cc3)cc(C)c21
6.9 ×10^−4

Sample CC(=O)OCC1=C2C(C)=CC(C=Cc3ccccc3)=[N+]2[B-](F)(F)n2c(C=Cc3ccccc3)cc(C)c21 — what was its Φ (quantum yield of acetic acid release)?
4.5 ×10^−4
